# credit: PubChem BioAssay (NCI)

test system: NCI-H23 lung; experiment: NCI-60 one-dose screen, 48 h; settings: 10 µM unless noted
This is part of a sample that, as a whole, favours compounds with a hit. Of some 83,000 tested, about 20% had one in any assay. Active and inactive are the calls of the source. How the source made its calls: active means growth percent below 10; inactive means the rest.
Response enum: label 1 for active, label 0 for inactive

>  <molecule>
COc1cc2ncnc(Nc3ccc(F)c(Cl)c3)c2cc1OCC(=O)N1CCN(C)CC1

>  <discrete_label>
label 0

$$$$
>  <molecule>
Clc1cccc(NCOOC2(OOCNc3cccc(Cl)c3)CCCCCC2)c1

>  <discrete_label>
label 0

$$$$

In: In this assay, the call recorded for NC(=O)CNc1ccc([As]=[As]c2ccc(NCC(N)=O)cc2)cc1 (stereo unspecified) was what?
Out: label 0

In: Moving on to the next molecule: CCC(CC)CC1(C)CC2(C)CCOC2OO1 (stereo unspecified)
Out: label 0

In: Moving on to the next molecule: O=C1CCC2(O)[C@@H]3Cc4ccc(O)c5c4[C@]2(CCN3Cc2ccoc2)C1O5 (stereo partly specified)
Out: label 0

In: Moving on to the next molecule: `CC(=O)Nc1nc2c(s1)CC[C@@]1(C)C2=CC[C@H]2[C@@H]3CC[C@H](O)[C@@]3(C)CC[C@@H]21`
Out: label 0

In: Moving on to the next molecule: `CNCc1cccnc1`
Out: label 0

In: Moving on to the next molecule: `Cc1c(NS(=O)(=O)c2ccccc2)ccc([N+](=O)[O-])c1Cl`
Out: label 0
